B1: FAM50A (parent)
chain: KALEILRKDFSELRSAGVEQLMYI

Variants of: B1
Assay: protein stability index of a GFP-peptide fusion (GPS, HEK-293T) (PSI 1-6); higher = more stable;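 further: lentivirally expressed fusions sorted by FACS into six bins by GFP to DsRed ratio, PSI derived from sequencing read proportions per bin multiplied by bin number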
Conditions: c terminus: a fixed tail appended
The threshold is inclusive: protein stability index of exactly 2 counts as True; values below receive False.

1) L6V
True
2) A2F
True
3) S11Y
False
4) I24E
False
5) Y23K
True
6) Q20D
True
7) E19I
True
8) I24K
False
9) S15A
True
10) D9L
False
11) V18F
True
12) E4P
True
13) K8I
True
14) M22P
True
15) A2H
False
16) Q20L
True
17) L6A
False
18) R7T
True
19) I5M
True
20) K8L
True
21) K1Q
False
22) S11I
True
23) L6R
False
24) L6G
False
25) R14Y
False
26) A2C
True
27) V18S
False
28) A2L
False
29) L3K
True
